Tested on: K4 kissing-loop RNA reporter
Procedure details: apparent KD of K4 kissing-loop reporter; higher = weaker reporter binding
Test settings: Eterna round: R107; input ligand: none
Attribute measured: apparent KD of K4 kissing-loop reporter (nM)
Numbers only, in nM.

Here's what some known entries look like.
AGACUACCACACUGUCAAUAGACAGUGAACUAGGAUAUGCUGAUAAGCAGAAGGAGUGAUGUUCCUCGGUAGUCAAUAAAAUAAU [FmnAX 13 C67] | 303
CUGAGCUGCAGCGAUACCAGUGUGGAGUGAUGUUCCCUGGUCCGGGCUGUUGUUCCCUUGCGCCCUUGGCAGCGCAGGAGCAGGG [Exclusion Theophylline B GF 15] | 422
UGAGGAGAAUAUGAUACCAGCAGAGAGAGAGAGGAAGUAUAGUGAUGUUAUAUGAGAUAAUGCCCUUGGCAGCAUAAGAAGAAGG [#19 K4 Theophylline B Same State] | 111
GACAUCUAUCGCCGAUAGUGUUUAUCUUGGGAGGAUAUGUCAGCGGACAGAAGGCCCAGUGAUGUUGGGUAGAUGACCGUUGCCU [Orerditi] | 131
CCGUGGAGUGAUGUUCCACGUACUACGGAUACCAGCUUUGCCAAAGGCCCUUGGCAGCCGCACGGCUCAGUGAUGUUGGGUCGCG [Same State Theophylline A G10] | 172
UGGAUGUAGUGAUGUUAUAUAGAGAGUGAUACCAGUUUAGAGAAGAACCCUUGGCAGCAUAGAAGAGUAUCAUUGGAGAAGAAUG [ExTheophyl.Ar] | 320

For every item in the list below, what is its measured apparent KD of K4 kissing-loop reporter?
1. ACUGAGCAUGCGGCCGCCACUUCAGAACGUCGCCCAGAGGGCGACGCCUCCGCAGUGAUGUUGUGGAGGACCGGGCAUGUUCAGA [Omei KL Tryp B Exc A v5]
2. UCCUGCAAUCUGCCACGAAAGUGGAUUGAUACCAGAGUCGAAAGACUCCCUUGGCAGCGAGUGAUGUUCGUAGCAGGUAAAUAAA [MatMod 6 - Jieux - Exclusion - Theophylline A]
3. AUGUCUGAUAGCAGUGAUGUUGCUUCAGAUACCAGACGAGAUCAUGUCCCUUGGCAGCUGACACGGCACGUGCUAGGUUAGAUGA [whbob_Ex_Theo_A_th71]

Result:
1: 355; 2: 206; 3: 118

###

System: MS2 coat protein
Procedure details: apparent KD of MS2 coat protein; designed switch direction (-1 OFF switch, 1 ON switch): -1; higher = weaker reporter binding
Test settings: input ligand: none
For each record, write down the corresponding apparent KD of MS2 coat protein.
Numbers only, in nM.

Here's what some known entries look like.
GGUCUUCAAGUCAGGAUAUCGUCUAAUCGAUCUGGCGAGAAGGGACAUGAGGAUCACCCAUGUCGUCUCAUCAG [Ex4 #16] (Eterna round: R97, puzzle: Brourd's mod of Exclusion 4) | 17.7
GUUACACAUGAGGAUCACCCAUGUGAGGAUAUGGAUUCGUUAGAAGUAGAAGAUGGAUCCAGAAGGCGCGUGAG [JR_Ex1_Sub079] (Eterna round: R97, puzzle: Exclusion 1) | 62.7

Task: Given ACAUGAGGAUCACCCAUGUACAGGGUGUAGUUUCAUUGUUUGAAGGAUAUACUUAGUUAGUUGUUGUAGAAGGUCAUAUUUCAU [JR_ExcNG3_Sub001] (Eterna round: R96, puzzle: Exclusion NG 3) , state its recorded apparent KD of MS2 coat protein.
Result: 1040

###

For each record, write down the corresponding apparent KD of K4 kissing-loop reporter.
Tested on: K4 kissing-loop RNA reporter;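 also: bound reporter read as fluorescence of individual clusters on recovered sequencing chips by microscopy, with normalized cluster intensities fitted with a binding model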
Procedure details: apparent KD of K4 kissing-loop reporter; higher = weaker reporter binding
Test settings: Eterna round: R107; input ligand: tryptophan 2.4 mM
One number for each entry, in nM.

Here's what some known entries look like.
UCCUAGGCUCGAAAGAGCCUAGGAUUGACUCAGGAUAUCCGGAAACGGAGAAGGGAGUCACUAGUGAUGUUAGGGAUUCCCUAUU | 94.2
CGCAGUGAUGUUGCUAUUGUUCUUGGUUAACGAGGACCGGUACGGCCGCCACUCGAUGUCUGUCUAGUCCAGUGUUUUUUUGAGU [whbob_EX_Tryp_A_t9] | 310

For every item in the list below, what is its measured apparent KD of K4 kissing-loop reporter?
1. AAAUCGUUCAGAAGGAGCGUGGAUUAUUCUUAAAUAUUUAUUACGAGUGAUGUUCGUAAUUCACAGGUAGGUCGCUGAUCGAUAA [JR_ExcArginiB_Sub003]
2. ACGCGCGCGAGUGAUGUUCGGAGCGGCUGGCAGGAUAUGUAGCAAUGCAGAAGGGUCGUGGCGCUCCCUCCUGAAGGAGGGAGCG [#2 Exclusion - FMN A Attempt #25 (HarryS)]
3. AAAAUAAUCCAGUGAUGUUGGUAUCCAGAUACCAGCCACGAAAGUGGCCCUUGGCAGCUGUGGACGUACAAAAUAAGUACGUCCU [#OpenEnded 8 #StaticStem #K4Early]
4. UGACUGGAUGGAAGGAGCGCUAAACUCCUAGUGAUGUUAGGGAUAUGAGGCAAAGCCUUGAGGCAGGUAGGUCGCCAUCUAGUCU [FiskerMod 25 - Jieux - Same State - Arginine B]
5. GGUAGCAUGGCGGCCGCCACUGGAGAGUGAUGUUCUCCACUAGGUUACAACGCCGGACAGUCCACCAGGACCGGGCCAUGCUACC

Result:
1. 105
2. 347
3. 651
4. 145
5. 436

For every item in the list below, what is its measured apparent KD of K4 kissing-loop reporter?
1. UGACUACAGGAAUAAUAAUCCUAGUGAUGUUAGGAUAUGCUGAUAAGCAGAAGGAACUGAGAUCGAAAGAUCUCAAAAGUAGUCU [FmnAX 28 Mat Inspired #SwitchBubble #StaticStem #K4Early]
2. GUUACGCAUGGAAGGAGCGCAGGCUCAACAAGUAGCUCAGUGAUGUUGAGCAUAUUAAUUCUGCAGGUAGGUCGCCAUGUGUAAC [Ex Arginine B K4 26]
3. CCCUCACGAGUGAUGUUCGUAGGGUACAGUCAGGAUAUCAUGCGGUUGAGAAGGGACAGAGAGGGCGGCGGCGGGUUGCUCCUCU [Beeded]
4. UGUCAUUGGUCUGAUACCAGAAGAAAUCUGGAGUGAUGUUCCAAGUACGACAAAAGUCGCUUCCCUUGGCAGCAGACCGAUGACU [TheoBS 21 #SwitchBubble 13 #StaticStem]
5. AACUCUCAGACACUUGAGUGAUGUUCGGGCCGAGGACCGGUACGGCCGCCACUCGGGUCUGAGAGAGGUUAUCAAAGAUAGCCAA [Omei KL Tryp A SS A v9]
6. AAAAUAAACCAGUGAUGUUGGUGUCUAGAUACCAGCGAUAAUAAUCGCCCUUGGCAGCUACGGACGUACAAAAUAAGUACGUCCU [MatMod 10 - Jieux - Same State - Theophylline A]
7. UGCGCUGUGUACUGAAAUGUCCUGCGGGAUACCAGAGUCUUUUUAUUCCCUUGGCAGCUUGAGUGAUGUUUGAUGCCGUUCUUGU [frrgmullin]
8. AACACUCUGGGAGUGAUGUUCUCAAAUAACCGAGGACCGGUACGGCCGCCACUCGGAAAAGAGUGAGUCCUACGAAAAGUAGGAC [Omei inspired 3]

Result:
1: 96.7; 2: 646; 3: 495; 4: 683; 5: 164; 6: 460; 7: 470; 8: 152

For every item in the list below, what is its measured apparent KD of K4 kissing-loop reporter?
1. CCGUGGAGUGAUGUUCCACGUACUACGGAUACCAGCUUUGCCAAAGGCCCUUGGCAGCCGCACGGCUCAGUGAUGUUGGGUCGCG [Same State Theophylline A G10]
2. AGGUCCGAGCCCGGAAGGGCUCGGACCUGUUAGGAUAUGACGUUAUUCAGAAGGGAUGGGUGGAGUGAUGUUCCACCCGCAAGGG [#2 Same State - FMN A Attempt #9 (HarryS)]
3. GGAUAGGACAGAGGAUAUGGUAGUGAUGUUACCAAACUGGUUAUUAAUGUCAGAAAACUGGCAAAUCCAGAAGGCUGUCCUAUCG [KL-XFMN-B13]
4. GGGAGAAGUGGUGUUGAUUAAGAAGCGGAAGGAGCGCCGAAGAAGGCAGGUAGGUCGCCGAAAUAUAGUGAUGUUAUAUAAAGGG [ExArg.B]
5. CGACUAGUCUUGCAACCCUAGUCGAUAGACUAGGAUAUCAGGAAACUGAGAAGGAGUCUACUUGCAGUGAUGUUGCAAGAAUAAU [[F]''-[K]'-[F]'-[F1]-[F2]-[K1]-[K2]_Design6]
6. AUUUGUUACCUUAUAGGAGUGAUGUUCUUGCGAGGACCGGUACGGCCGCCACUCGCGCUGGCGCCUAGCCUCGGACCGUUAAUUC [theeternabot_exclusion_KL_Trp_A_25]
7. GUGCAGUGAUGUUGCACGAGGAAAGACGAUACCAGCCGUAAAUAAGGCCCUUGGCAGCGUGGGCUAGCAUAAAGUACGCUAGUCU [Mara]

Result:
1: 148; 2: 86.5; 3: 62.9; 4: 152; 5: 156; 6: 431; 7: 97.1
